# STUDY SYSTEM: Amyloid-beta precursor protein (Homo sapiens)
# PROTOCOL DETAILS: Induction of amyloid beta 40 fibrils (unknown origin) disaggregation assessed as decrease in relative fluorescence intensity at 500 uM incubated for 24 hrs ThT flourescence assay relative to control
# Parameters: scale not given: the % may be the effect or the level left
Where a SMILES comes first, the peptide text is derived from it. [ ]: non-standard residue; d: D form. Nle = CCCC[C@H](N)C(=O)O
Could you please report measured Activity for the items listed next?

Input: Requested read-out: Activity. Entry: CCCC[C@@H]1NC(=O)[C@@H](CC(C)C)NC(=O)[C@H](CCCCN)NC(=O)[C@@H](CO)NC(=O)[C@H](Cc2c[nH]cn2)NC(=O)N(Cc2cc3ccccc3[nH]2)NC1=O
Output: < 50%

Input: Requested read-out: Activity. Entry: CCCC[C@@H]1NC(=O)[C@@H](CC(C)C)NC(=O)[C@H](CCCCN)NC(=O)[C@@H](CO)NC(=O)[C@H](Cc2c[nH]cn2)NC(=O)[C@@H](Cc2c[nH]c3ccccc23)NC1=O (cyclo(K[dL][Nle][dW]H[dS]))
Output: 33%

Input: Requested read-out: Activity. Entry: CCCC[C@@H]1NC(=O)[C@@H](CC(C)C)NC(=O)[C@H](CCCCN)NC(=O)N(CCO)NC(=O)[C@H](Cc2c[nH]cn2)NC(=O)[C@@H](Cc2c[nH]c3ccccc23)NC1=O (racemic)
Output: < 50%

Input: Requested read-out: Activity. Entry: CCCC[C@@H]1NC(=O)[C@@H](CC(C)C)NC(=O)N(CCCCN)NC(=O)[C@@H](CO)NC(=O)[C@H](Cc2c[nH]cn2)NC(=O)[C@@H](Cc2c[nH]c3ccccc23)NC1=O (racemic)
Output: < 50%

Input: Requested read-out: Activity. Entry: CCCCN1NC(=O)[C@@H](CC(C)C)NC(=O)[C@H](CCCCN)NC(=O)[C@@H](CO)NC(=O)[C@H](Cc2c[nH]cn2)NC(=O)[C@@H](Cc2c[nH]c3ccccc23)NC1=O (racemic)
Output: < 50%

Input: Requested read-out: Activity. Entry: CCCC[C@@H]1NC(=O)N(CC(C)C)NC(=O)[C@H](CCCCN)NC(=O)[C@@H](CO)NC(=O)[C@H](Cc2c[nH]cn2)NC(=O)[C@@H](Cc2c[nH]c3ccccc23)NC1=O (racemic)
Output: 72%

Input: Requested read-out: Activity. Entry: CCCC[C@@H]1NC(=O)[C@@H](CC(C)C)NC(=O)[C@H](CCCCN)NC(=O)[C@@H](CO)NC(=O)N(Cc2c[nH]nn2)NC(=O)[C@@H](Cc2c[nH]c3ccccc23)NC1=O (racemic)
Output: < 50%

* * *

# STUDY SYSTEM: Amyloid-beta precursor protein (Homo sapiens)
# PROTOCOL DETAILS: Inhibition of amyloid beta 42 (unknown origin) aggregation assessed as decrease in fibril formation by measuring fluorescence intensity and measured for 72 hrs by ThT flourescence assay
Calls of active or inactive are those of the source. No cut-off for these calls is given here.
Returns: one label drawn from 1.0 for active, 0.0 for inactive

Input: Record request — test call for CCCC[C@@H]1NC(=O)[C@@H](CC(C)C)NC(=O)[C@H](CCCCN)NC(=O)[C@@H](CO)NC(=O)N(Cc2c[nH]nn2)NC(=O)[C@@H](Cc2c[nH]c3ccccc23)NC1=O (racemic)
Output: 1.0

Input: Record request — test call for CCCC[C@@H]1NC(=O)[C@@H](CC(C)C)NC(=O)N(CCCCN)NC(=O)[C@@H](CO)NC(=O)[C@H](Cc2c[nH]cn2)NC(=O)[C@@H](Cc2c[nH]c3ccccc23)NC1=O (racemic)
Output: 1.0

Input: Record request — test call for CCCC[C@@H]1NC(=O)[C@@H](CC(C)C)NC(=O)[C@H](CCCCN)NC(=O)[C@@H](CO)NC(=O)[C@H](Cc2c[nH]cn2)NC(=O)N(Cc2cc3ccccc3[nH]2)NC1=O
Output: 0.0

Input: Record request — test call for CCCC[C@@H]1NC(=O)[C@@H](CC(C)C)NC(=O)[C@H](CCCCN)NC(=O)N(CCO)NC(=O)[C@H](Cc2c[nH]cn2)NC(=O)[C@@H](Cc2c[nH]c3ccccc23)NC1=O (racemic)
Output: 1.0

Input: Record request — test call for CCCCN1NC(=O)[C@@H](CC(C)C)NC(=O)[C@H](CCCCN)NC(=O)[C@@H](CO)NC(=O)[C@H](Cc2c[nH]cn2)NC(=O)[C@@H](Cc2c[nH]c3ccccc23)NC1=O (racemic)
Output: 1.0

* * *

# STUDY SYSTEM: Amyloid-beta precursor protein (Homo sapiens)
# PROTOCOL DETAILS: Inhibition of amyloid beta 40 (unknown origin) aggregation assessed as reduction in fibril formation by measuring fluorescence intensity at compound:Abeta40 concentration ratio of 1:5 and measured for 72 hrs by ThT flourescence assay relative to control
Where a SMILES comes first, the peptide text is derived from it. [ ]: non-standard residue; d: D form. Nle = CCCC[C@H](N)C(=O)O
Could you please report measured inhibition for the items listed next?

Input: Requested read-out: inhibition. Entry: CCCC[C@@H]1NC(=O)[C@@H](CC(C)C)NC(=O)[C@H](CCCCN)NC(=O)[C@@H](CO)NC(=O)[C@H](Cc2c[nH]cn2)NC(=O)[C@@H](Cc2c[nH]c3ccccc23)NC1=O (cyclo(K[dL][Nle][dW]H[dS]))
Output: 89%

Input: Requested read-out: inhibition. Entry: CCCCN1NC(=O)[C@@H](CC(C)C)NC(=O)[C@H](CCCCN)NC(=O)[C@@H](CO)NC(=O)[C@H](Cc2c[nH]cn2)NC(=O)[C@@H](Cc2c[nH]c3ccccc23)NC1=O (racemic)
Output: 88%

* * *

# STUDY SYSTEM: Amyloid-beta precursor protein (Homo sapiens) (UniProt P05067)
# Sequence (P05067 whole entry): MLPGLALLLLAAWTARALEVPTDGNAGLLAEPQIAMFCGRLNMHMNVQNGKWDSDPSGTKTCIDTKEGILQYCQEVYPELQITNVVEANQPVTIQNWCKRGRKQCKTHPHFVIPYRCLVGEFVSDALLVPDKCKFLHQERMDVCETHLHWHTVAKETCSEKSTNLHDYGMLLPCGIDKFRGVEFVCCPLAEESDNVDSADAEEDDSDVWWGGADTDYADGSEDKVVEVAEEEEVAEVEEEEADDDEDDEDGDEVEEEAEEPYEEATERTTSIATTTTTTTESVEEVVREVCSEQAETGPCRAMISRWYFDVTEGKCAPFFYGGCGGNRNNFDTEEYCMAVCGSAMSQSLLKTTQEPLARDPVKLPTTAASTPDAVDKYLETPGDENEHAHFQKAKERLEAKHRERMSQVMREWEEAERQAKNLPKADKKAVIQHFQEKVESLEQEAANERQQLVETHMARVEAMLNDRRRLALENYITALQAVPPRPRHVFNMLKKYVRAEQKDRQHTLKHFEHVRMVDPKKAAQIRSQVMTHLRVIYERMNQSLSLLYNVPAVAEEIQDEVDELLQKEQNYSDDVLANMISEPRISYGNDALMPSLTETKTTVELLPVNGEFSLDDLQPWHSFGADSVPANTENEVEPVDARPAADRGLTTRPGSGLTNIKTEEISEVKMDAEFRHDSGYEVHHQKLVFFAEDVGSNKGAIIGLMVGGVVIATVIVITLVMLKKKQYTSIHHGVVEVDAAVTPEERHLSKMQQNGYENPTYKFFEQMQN
# PROTOCOL DETAILS: Inhibition of amyloid beta 40 (unknown origin) aggregation assessed as assessed as decrease in oligomer formation by measuring decrease in oligomer-specific A11 antibody spots at 150 uM and measured for 48 hrs by Dot-Blot assay
Activity calls are given as the source filed them. The calls are words filed in the database; no cut-off is given here.
Returns: one label drawn from TRUE (active), FALSE (inactive)

Input: Record request — test call for CCCCN1NC(=O)[C@@H](CC(C)C)NC(=O)[C@H](CCCCN)NC(=O)[C@@H](CO)NC(=O)[C@H](Cc2c[nH]cn2)NC(=O)[C@@H](Cc2c[nH]c3ccccc23)NC1=O (racemic)
Output: TRUE

Input: Record request — test call for CCCC[C@@H]1NC(=O)N(CC(C)C)NC(=O)[C@H](CCCCN)NC(=O)[C@@H](CO)NC(=O)[C@H](Cc2c[nH]cn2)NC(=O)[C@@H](Cc2c[nH]c3ccccc23)NC1=O (racemic)
Output: FALSE

Input: Record request — test call for CCCC[C@@H]1NC(=O)[C@@H](CC(C)C)NC(=O)[C@H](CCCCN)NC(=O)[C@@H](CO)NC(=O)N(Cc2c[nH]nn2)NC(=O)[C@@H](Cc2c[nH]c3ccccc23)NC1=O (racemic)
Output: TRUE

Input: Record request — test call for CCCC[C@@H]1NC(=O)[C@@H](CC(C)C)NC(=O)[C@H](CCCCN)NC(=O)[C@@H](CO)NC(=O)[C@H](Cc2c[nH]cn2)NC(=O)N(Cc2cc3ccccc3[nH]2)NC1=O
Output: FALSE

Input: Record request — test call for CCCC[C@@H]1NC(=O)[C@@H](CC(C)C)NC(=O)[C@H](CCCCN)NC(=O)N(CCO)NC(=O)[C@H](Cc2c[nH]cn2)NC(=O)[C@@H](Cc2c[nH]c3ccccc23)NC1=O (racemic)
Output: TRUE

Input: Record request — test call for CCCC[C@@H]1NC(=O)[C@@H](CC(C)C)NC(=O)N(CCCCN)NC(=O)[C@@H](CO)NC(=O)[C@H](Cc2c[nH]cn2)NC(=O)[C@@H](Cc2c[nH]c3ccccc23)NC1=O (racemic)
Output: TRUE

* * *

# STUDY SYSTEM: Amyloid-beta precursor protein (Homo sapiens)
# PROTOCOL DETAILS: Inhibition of amyloid beta 40 (unknown origin) aggregation assessed as reduction in fibril formation by measuring fluorescence intensity at compound:Abeta40 concentration ratio of 1:5 and measured for 72 hrs by ThT flourescence assay relative to control
Calls of active or inactive are those of the source. The calls are words filed in the database; no cut-off is given here.
Returns: one label drawn from active, inactive

Input: Record request — test call for CCCC[C@@H]1NC(=O)[C@@H](CC(C)C)NC(=O)[C@H](CCCCN)NC(=O)[C@@H](CO)NC(=O)[C@H](Cc2c[nH]cn2)NC(=O)N(Cc2cc3ccccc3[nH]2)NC1=O
Output: active

Input: Record request — test call for CCCC[C@@H]1NC(=O)N(CC(C)C)NC(=O)[C@H](CCCCN)NC(=O)[C@@H](CO)NC(=O)[C@H](Cc2c[nH]cn2)NC(=O)[C@@H](Cc2c[nH]c3ccccc23)NC1=O (racemic)
Output: inactive

Input: Record request — test call for CCCC[C@@H]1NC(=O)[C@@H](CC(C)C)NC(=O)N(CCCCN)NC(=O)[C@@H](CO)NC(=O)[C@H](Cc2c[nH]cn2)NC(=O)[C@@H](Cc2c[nH]c3ccccc23)NC1=O (racemic)
Output: inactive

Input: Record request — test call for CCCC[C@@H]1NC(=O)[C@@H](CC(C)C)NC(=O)[C@H](CCCCN)NC(=O)[C@@H](CO)NC(=O)N(Cc2c[nH]nn2)NC(=O)[C@@H](Cc2c[nH]c3ccccc23)NC1=O (racemic)
Output: active
